Items are presented alongside their recorded composite z-score.
target: Torsin-1A (Homo sapiens) (UniProt O14656); assay: TOR1A wild-type binding on microarray – cell lysate, small-molecule microarray, lysate, 635/667 nm, primary screen (AID 1149); conditions: COS7 hTOR1A-WT lysate, 635 nm fluorescence, higher = more signal
Sequence (O14656 whole entry, looked up): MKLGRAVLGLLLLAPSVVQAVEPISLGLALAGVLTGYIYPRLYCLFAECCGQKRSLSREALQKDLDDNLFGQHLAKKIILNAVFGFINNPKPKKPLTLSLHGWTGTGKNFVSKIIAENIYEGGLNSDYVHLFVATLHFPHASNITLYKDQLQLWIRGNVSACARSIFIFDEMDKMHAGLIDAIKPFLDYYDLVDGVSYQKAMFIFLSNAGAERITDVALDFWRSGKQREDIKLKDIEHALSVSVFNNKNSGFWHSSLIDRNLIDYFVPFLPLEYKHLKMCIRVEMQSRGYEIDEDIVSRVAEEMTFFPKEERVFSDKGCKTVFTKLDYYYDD

| CHEMICAL_STRUCTURE | composite z-score |
| --- | --- |
| COCCOC(=O)N1C(=O)[C@@]2(c3cc(C#CCCO)ccc31)[C@H](c1ccc(OCCO)cc1)N1[C@H](c3ccccc3)[C@H](c3ccccc3)OC(=O)[C@H]1[C@@H]2C(=O)N1CCCCCCC1 | 0.862 |
| COC(=O)C(CC#Cc1ccc2c(c1)[C@]1(C(=O)N2)[C@H](C(=O)N2CCc3cc(OC)c(OC)cc3C2)[C@H]2C(=O)O[C@H](c3ccccc3)[C@H](c3ccccc3)N2[C@@H]1c1ccccc1OCCO)C(=O)OC | 0.885 |
| C[C@]1(C(=O)O)c2ccccc2C(=O)N(Cc2cc(F)cc(C(F)(F)F)c2)[C@H]1c1ccc(CO)cc1 | -0.0875 |

###

assay: JC-1 mitochondrial signal, unstimulated adipocytes – cell-based, JC-1 fluorescence, 3T3-L1 adipocytes, 24 h, 100 nL compound, profiling panel (AID 1168); details: JC-1 mitochondrial fluorescence, higher = more signal, called active from +8 up or from −8 down; note: test concentration not given here
Reported z-score is given for each of the following compounds.
ASSAY_ENDPOINT: z-score

| COMPOUND | VALUE_OBSERVED |
| --- | --- |
| C=CCNC(=O)[C@H]1[C@@H]2C(=O)O[C@@H](c3ccccc3)[C@@H](c3ccccc3)N2[C@@H](c2ccc(OCCO)cc2)[C@]12C(=O)Nc1ccccc12 | -0.00331 |
| N#Cc1ccc(NN2C(C(O)C3CC=CCC3)C=CC3C(=O)N(c4ccccc4)C(=O)C32)cc1 (stereo not drawn) | -1.14 |
| CO[C@H]1O[C@H](CO)[C@@H](OC(=O)Nc2ccccc2-c2ccccc2)[C@H](OC(=O)Nc2ccccc2)[C@H]1OC(=O)Nc1ccccc1 | 0.877 |
| CO[C@H]1O[C@H](CO)[C@@H](OC(=O)Nc2ccccc2)[C@H](OC(=O)Nc2ccccc2)[C@H]1OC(=O)Nc1ccccc1 | 0.0293 |
| CN(C)CCCCNC(=O)[C@H]1C[C@H]2C(=O)N3CCC[C@H]3C(=O)N2[C@H]1c1cccc(OCCO)c1 | 0.119 |
| CN(C)c1ccc(C(O)C2C=CC3C(=O)N(Cc4ccccc4)C(=O)C3N2n2cnnc2)cc1 (stereo not drawn) | 0.522 |
| CC(C)N1C(=O)c2ccccc2[C@@H](C(=O)NCC(F)(F)F)[C@@H]1c1ccc(CO)cc1 | -0.516 |
| C=CC[C@@]12N=C(c3ccc(OCCCO)cc3)O[C@@H]1c1ccccc1N(CCC)C2=O | 2.64 |

###

assay: S6 kinase pathway phospho-S6 level changes – cell-based, A549, cytoblot, luminescence, serum-stimulated, primary screen (AID 1158); settings: 5 h, higher = more signal;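 note: serum-stimulated A549 lung adenocarcinoma cells; signal is phosphorylated S6 detected by cytoblot immunostaining with HRP secondary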
ASSAY_ENDPOINT: z-score

| COMPOUND | ASSAY_ENDPOINT | VALUE_OBSERVED |
| --- | --- | --- |
| C=CCOC(=O)[C@@H]1[C@H]2C(=O)O[C@H](c3ccccc3)[C@H](c3ccccc3)N2[C@H](c2ccc(OCCOC(=O)[C@H]3C[C@H]4C(=O)N5CCC[C@H]5C(=O)N4[C@H]3c3cccc(OCCO)c3)cc2)[C@@]12C(=O)Nc1ccc(I)cc12 | z-score | -0.101 |
| CN(C)CCCNC(=O)[C@@]1(C)c2ccccc2C(=O)N(Cc2ccc(OC(F)(F)F)cc2)[C@H]1c1ccc(CO)cc1 | z-score | 0.235 |
| CCOC(=O)C[C@H]1[C@H](OC(=O)Cc2ccc3c(c2)OCO3)[C@@H](NC(=O)c2ccc3ccccc3n2)c2cc(OCCCO)ccc2N1C(=O)Cc1ccc(OC)cc1 | z-score | 2.03 |
| COC(=O)C(CC#Cc1ccc2c(c1)[C@]1(C(=O)N2)[C@H](c2ccccc2OCCO)N2[C@H](c3ccccc3)[C@H](c3ccccc3)OC(=O)[C@H]2[C@@H]1C(=O)N1CCc2cc(OC)c(OC)cc2C1)C(=O)OC | z-score | -0.033 |
| NC(=O)N1C(=O)C2C(C1=O)C1C=C(CCCO)C2C(c2ccc(CN3CCCC3)cc2)N1Cc1sc2ccccc2c1Cl (centres undefined) | z-score | 0.457 |
| Cc1ccc(S[C@]2(C(=O)NCC(F)(F)F)CC(=O)N(Cc3ccccc3C(F)(F)F)[C@@H]2c2ccc(CO)cc2)cc1 | z-score | -0.0621 |
| CC1CC/C=C\[C@H]2OC34C=CCN(CCN5CCOCC5)C(=O)[C@H]3N(CCCO)C(=O)[C@@H]4C2C(=O)O1 (some centres undefined) | z-score | 1.38 |
| C=CCOC(=O)[C@@H]1[C@H]2C(=O)O[C@H](c3ccccc3)[C@H](c3ccccc3)N2[C@H](c2ccc(OCCOC(=O)[C@H]3C[C@H]4C(=O)N[C@@H](CCCCN(C)C)C(=O)N4[C@H]3c3ccc(O)cc3)cc2)[C@@]12C(=O)Nc1ccc(I)cc12 | z-score | -1.34 |
| C=C(CCCC)/C(=C/C[C@H](OC(=O)c1ccncc1)c1ccccc1OCCO)c1cc(C(=O)OC)ccc1OC | z-score | -0.166 |
| C=CCOC(=O)[C@H]1[C@@H]2C(=O)O[C@@H](c3ccccc3)[C@@H](c3ccccc3)N2[C@@H](c2ccc(OCCOC(=O)[C@@H]3C[C@@H]4C(=O)N[C@@H](CCCCNC(C)=O)C(=O)N4[C@@H]3c3cccc(OCCO)c3)cc2)[C@]12C(=O)Nc1ccccc12 | z-score | -0.52 |
| COC(=O)C1=CC(CCCO)=CC(c2cccs2)N(Cc2cc3c(cc2Br)OCO3)C=C1C(=O)OC (centres undefined) | z-score | -0.176 |
| [N-]=[N+]=Nc1ccccc1C[C@@]1(C(=O)NCC(O)CO)N=C(c2ccc(OCCCO)cc2)O[C@@H]1c1ccccc1 (some centres undefined) | z-score | 0.122 |
| COC(=O)[C@@]1(Cc2ccccc2)[C@H]2c3cc(C(=O)N(C)C)n(Cc4ccc(S(C)(=O)=O)cc4)c3C[C@H]2CN1C(=O)c1ccccc1 | z-score | 0.393 |
| O=C1[C@@H]2[C@@H](CC(COc3ccccc3)=C([C@H](O)CCc3ccccc3)[C@@H]2CO)C(=O)N1Cc1ccccc1 | z-score | 0.05 |
| C=C(CCCC)/C(=C/C[C@H](OC(C)=O)c1cccc(OCCO)c1)c1cnc2ccccc2c1 | z-score | -0.33 |
| CC(C)NC(=O)[C@@]1(c2ccc([N+](=O)[O-])cc2)CC(=O)N(CC23CC4CC(CC(C4)C2)C3)[C@@H]1c1ccc(CO)cc1 | z-score | -0.248 |
| C=CCC(OC(C)=O)[C@@H]1[C@@H](N(Cc2cc3ccccc3o2)C(=O)Cc2ccc(OC)cc2)c2cc(OCCCO)ccc2N1C(=O)c1ccc2ccccc2n1 (some centres undefined) | z-score | 0.856 |
| COc1cc(CO)cc(I)c1O[C@H]1C=C(C(=O)NCCO)C[C@@H]2O[C@H]12 | z-score | 0.179 |
| O=C1C2C=CC(C(O)C3CCCCC3)N(n3cnnc3)C2C(=O)N1Cc1ccccc1 (centres undefined) | z-score | 1.75 |

###

molecular target: Focal adhesion kinase 1 (Homo sapiens); test: PTK2 protein binding on printed compound slides – biochemical, small-molecule microarray, 635/667 nm fluorescence, BSA, DTT, primary screen (AID 1130); conditions: 635 nm fluorescence, higher = more signal;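 note: composite of spot emission at 667 nm and signal to noise over triplicate slides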
Class definitions on composite z-score: low (below 0.2), middle (0.2 to below 0.4), high (0.4 or more)

| COMPOUND | CAT |
| --- | --- |
| O=C1C=C(c2ccccc2)C(=O)C2=C1CC([C@H]1Oc3ccccc3S(=O)(=O)N3CCC[C@@H]13)=CC2 | low |
| COC(=O)[C@@]1(Cc2ccc(OC)cc2)[C@H]2c3cc(C(=O)N4CCCC4)n(Cc4c(CO)[nH]cc(C)c4=O)c3C[C@H]2CN1C(=O)c1ccccc1 | high |
| COc1cc(C(O)C2C=CC3C(=O)N(c4ccccc4)C(=O)C3N2Nc2ccccc2F)cc(OC)c1OC (centres undefined) | middle |
| C=CC[C@]1(C(=O)NCC(O)CO)COC(c2ccc(OCCCO)cc2)=N1 (some centres undefined) | low |
| CN1C(=O)C2C(C1=O)C1C=C(CCCO)C2C(C2CC2)N1Cc1cccc(OC(F)(F)F)c1 (centres undefined) | high |
| CC1CC/C=C\[C@H]2OC34C=CCN(Cn5nnc6ccccc65)C(=O)[C@H]3N(CCCCCCO)C(=O)[C@@H]4C2C(=O)O1 (some centres undefined) | low |
| CO[C@H]1O[C@H](CO)[C@@H](OC(=O)Nc2ccc3c(c2)OCO3)[C@H](OC(=O)Nc2ccccc2-c2ccccc2)[C@H]1OC(=O)Nc1ccccc1-c1ccccc1 | high |
| C=CCC(OC(C)=O)[C@@H]1[C@@H](N(Cc2cccc3ccccc23)C(=O)Cc2ccc(OC)cc2)c2cc(OCCCO)ccc2N1C(=O)c1ccc2ccccc2c1 (some centres undefined) | middle |
| C[N+](C)(C)CCCC[C@@H]1NC(=O)[C@H]2C[C@@H](C(=O)NCCCCCNC(=O)CS)[C@@H](c3cccc(OCCO)c3)N2C1=O | middle |
| CC(C)=CCCC=C(C)C(O)C1C=CC2C(=O)N(c3ccccc3)C(=O)C2N1Nc1ccc(C#N)cc1 (centres undefined) | high |
| Cc1ccc(S[C@]2(C(=O)NCC(F)(F)F)CC(=O)N(Cc3ccccc3C(F)(F)F)[C@@H]2c2ccc(CO)cc2)cc1 | low |
| COc1ccc(C(O)C2C=CC3C(=O)N(C)C(=O)C3N2N(c2ccccc2)c2ccccc2)cc1 (centres undefined) | low |
| C=C(COC)/C(=C/C[C@@H](OC(C)=O)c1ccccc1OCCO)c1cnc2ccccc2c1 | high |
| OCCCC1=CC(c2ccc(CN3CCCC3)cc2)N(Cc2cccc(OC(F)(F)F)c2)CC1 (centres undefined) | middle |
| COc1ccc([Si](C)(C)[C@H]2[C@H](CC(=O)N3Cc4ccccc4C[C@H]3CO)O[C@@]3(C(=O)N(C)c4c(Br)cc(C)cc43)[C@@H]2C)cc1 | low |
| CCCCCCc1nc(Cc2cc(OC)c(OC)c(OC)c2)cc2c1[Si](C(C)C)(C(C)C)O[C@H]2c1ccccc1 | low |
| COc1ccc(C(O)C2C=CC3C(=O)N(c4ccccc4)C(=O)C3N2Nc2ccc(C#N)cc2)cc1OCc1ccccc1 (centres undefined) | high |
| COc1ccc([Si](C)(C)[C@@H]2[C@@H](CC(=O)N(CCO)Cc3ccccc3)O[C@]3(C(=O)N(Cc4ccc(N5C(=O)c6cccc7cccc5c67)cc4)c4ccccc43)[C@H]2C)cc1 | middle |
